- Species: Rattus norvegicus
- ASSAY NOTES: Anxiolytic activity for protection against pentylenetetrazole-induced convulsions in experiment 1
- Assay type: functional
- CONDITION DETAILS: Rattus norvegicus; read-out: ED50

COMPOUND STRUCTURE	SCALE UNIT	ED50
Cc1nnc2ccc(-c3cccc(Cl)c3)nn12	mg/kg	8
Cc1nnc2ccc(-c3ccc(F)cc3)nn12	mg/kg	3.4
FC(F)(F)c1nnc2ccc(-c3ccccc3)nn12	mg/kg	15
c1ccc(-c2ccc3nncn3n2)cc1	mg/kg	9
Clc1ccc(-c2ccc3nncn3n2)cc1	mg/kg	5.3
COCc1nnc2ccc(-c3ccccc3)nn12	mg/kg	9.5
FC(F)(F)c1cccc(-c2ccc3nncn3n2)c1	mg/kg	4.5
Cc1nnc2ccc(-c3cccc(C(F)(F)F)c3)nn12	mg/kg	1.7
Cc1nnc2ccc(-c3ccccc3)nn12	mg/kg	2.3
Cc1nnc2ccc(-c3ccc(Cl)cc3)nn12	mg/kg	9.9
Nc1cccc(-c2ccc3nncn3n2)c1	mg/kg	15
Fc1ccc(-c2ccc3nncn3n2)cc1	mg/kg	5

---

- STUDY SYSTEM: GABA-A receptor; anion channel (Rattus norvegicus) (UniProt O09028+P15431+P18506+P18508+P19969+P20236+P23574+P23576+P28471+P28473+P30191+P62813+P63079+P63138+Q91ZM7+Q9ES14)
- ASSAY NOTES: In vitro inhibition of [3H]diazepam binding towards Benzodiazepine receptor at 1 uM
- Type: protein-complex assay
Returns label 1 if the recorded inhibition is greater than or equal to 60%, and label 0 otherwise.

COMPOUND	CLASS LABEL
COc1cccc(-c2ccc3nnc(C)n3n2)c1	label 1
Cc1nnc2ccc(-c3cccc(C(F)(F)F)c3)nn12 [CI-218872]	label 1
Cc1nnc2ccc(-c3ccccc3F)nn12	label 0
Fc1ccc(-c2ccc3nncn3n2)cc1	label 0
FC(F)(F)c1cccc(-c2ccc3nnc(CCl)n3n2)c1	label 1
Cc1cc(-c2cccc(C(F)(F)F)c2)nn2cnnc12	label 0
Cc1cc2nnc(C)n2nc1-c1cccc(C(F)(F)F)c1	label 0
c1ccc(-c2ccc3nncn3n2)cc1	label 0
Cc1nnc2ccc(-c3ccccc3)nn12	label 0
CNC1=Nc2ccc(Cl)cc2C(c2ccccc2)=[N+]([O-])C1 [CHLORDIAZEPOXIDE]	label 1
CCCc1nnc2ccc(-c3ccccc3)nn12	label 0

---

- STUDY SYSTEM: GABA-A receptor; anion channel (Rattus norvegicus) (UniProt O09028+P15431+P18506+P18508+P19969+P20236+P23574+P23576+P28471+P28473+P30191+P62813+P63079+P63138+Q91ZM7+Q9ES14)
- ASSAY NOTES: In vitro inhibition of [3H]diazepam binding towards Benzodiazepine receptor at 1 uM
- Format: protein-complex assay
Returns YES if the recorded inhibition is greater than or equal to 20%, and NO otherwise.

COMPOUND STRUCTURE	CLASS LABEL
CC(=O)Nc1cccc(-c2ccc3nnc(C)n3n2)c1	YES
FC(F)(F)c1cccc(-c2ccc3nnc(C(F)(F)F)n3n2)c1	YES
Cc1nnc2ccc(-c3cccc([N+](=O)[O-])c3)nn12	YES
FC(F)(F)c1ccc(-c2ccc3nncn3n2)cc1	YES
Cc1nnc2ccc(-c3ccc(F)cc3)nn12	YES
CCc1nnc2ccc(-c3cccc(C(F)(F)F)c3)nn12	YES
Cc1nnc2ccc(-c3ccccc3Cl)nn12	NO
COCc1nnc2ccc(-c3cccc(C(F)(F)F)c3)nn12	YES
Nc1cccc(-c2ccc3nncn3n2)c1	YES
Cc1cc(-c2cccc(C(F)(F)F)c2)nn2c(C)nnc12	NO
Cc1cc2nnc(C)n2nc1-c1ccc(F)cc1	NO
Fc1ccccc1-c1ccc2nncn2n1	NO
Cc1nnc2ccc(-c3ccc(C(F)(F)F)cc3)nn12	NO

---

- STUDY SYSTEM: GABA-A receptor; anion channel
- ASSAY NOTES: In vitro for inhibition of [3H]diazepam towards Benzodiazepine receptor from rat
pIC50: −log10 of the molar value.
# maps each entry to its pIC50

COMPOUND STRUCTURE	STUDY SYSTEM	pIC50
Clc1cccc(-c2ccc3nncn3n2)c1	GABA-A receptor; anion channel	5.65
Cc1nnc2ccc(-c3cccc(C(F)(F)F)c3)nn12	GABA-A receptor; anion channel	6.94
Cc1nnc2ccc(-c3cccc(N)c3)nn12	GABA-A receptor; anion channel	6.29
Cc1nnc2ccc(-c3ccc(F)cc3)nn12	GABA-A receptor; anion channel	6.23
FC(F)(F)c1cccc(-c2ccc3nncn3n2)c1	GABA-A receptor; anion channel	6.04
Cc1nnc2ccc(-c3cccc(F)c3)nn12	GABA-A receptor; anion channel	5.92
CC(=O)Nc1cccc(-c2ccc3nnc(C)n3n2)c1	GABA-A receptor; anion channel	6.20

Data provenance: ChEMBL document CHEMBL1121835
